- system.name: UCP1 (Homo sapiens)
- Construct: His8 (N, cleaved yes); Factor Xa protease cleavage site (N, cleaved yes); made in house; host or cells: Saccharomyces cerevisiae strain W303.1B
- Sequence (P25874 1-307): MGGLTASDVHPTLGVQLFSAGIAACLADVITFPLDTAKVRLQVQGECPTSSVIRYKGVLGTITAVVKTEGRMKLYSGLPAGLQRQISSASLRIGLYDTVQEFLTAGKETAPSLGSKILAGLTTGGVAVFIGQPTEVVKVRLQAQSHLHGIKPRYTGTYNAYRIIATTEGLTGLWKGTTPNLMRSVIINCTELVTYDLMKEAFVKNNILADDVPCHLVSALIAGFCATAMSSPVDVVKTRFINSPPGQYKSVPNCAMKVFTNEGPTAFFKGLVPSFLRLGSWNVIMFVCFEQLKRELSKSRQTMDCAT
- test.summary: Isothermal titration calorimetry of nucleotide binding
- Design: unit not given here
- conditions.used: Molar ratio (Nucleotide/UCP) 0.491383; representative isotherm, pH 6.0, 20 °C
property.name: isotherm data point (enthalpy change per injection)

Known isotherm data point (enthalpy change per injection) results, listed for orientation:
Nc1ccn(C2OC(COP(=O)(O)OP(=O)(O)OP(=O)(O)O)C(O)C2O)c(=O)n1 (centres unmarked)
-16.7607
Nc1nc2c(ncn2[C@@H]2O[C@H](COP(=O)(O)OP(=O)(O)OP(=O)(O)O)[C@@H](O)[C@H]2O)c(=O)[nH]1 [GTP, guanosine triphosphate]
-16.412
Cc1cn([C@H]2C[C@H](O)[C@@H](COP(=O)(O)OP(=O)(O)OP(=O)(O)O)O2)c(=O)[nH]c1=O [dTTP, thymidine triphosphate]
-18.3951

1 = Nc1ncnc2c1ncn2[C@@H]1O[C@H](COP(=O)(O)OP(=O)(O)OP(=O)(O)O)[C@@H](O)[C@H]1O [ATP, adenosine triphosphate]
2 = O=c1ccn([C@@H]2O[C@H](CO[P@@](=O)(O)O[P@@](=O)(O)OP(=O)(O)O)[C@@H](O)[C@H]2O)c(=O)[nH]1 (stereo in doubt) [UTP, uridine triphosphate]
input: Quick one: lower isotherm data point (enthalpy change per injection), 1 or 2 ? Bench note: the answer is the label of the chosen record.
output: 1
(1: -33.5364, 2: -17.9061)

----------
- system.name: UCP1 (Homo sapiens, UniProt P25874)
- Construct: His8 (N, cleaved yes); Factor Xa protease cleavage site (N, cleaved yes); made in house; host or cells: Saccharomyces cerevisiae strain W303.1B
- test.summary: Isothermal titration calorimetry of nucleotide binding
- Set-up: unit not given here
- conditions.used: Molar ratio (Nucleotide/UCP) 0.120417; representative isotherm, pH 6.0, 20 °C
property.name: isotherm data point (enthalpy change per injection)

a = O=c1ccn([C@@H]2O[C@H](CO[P@@](=O)(O)O[P@@](=O)(O)OP(=O)(O)O)[C@@H](O)[C@H]2O)c(=O)[nH]1 (stereo in doubt) [UTP, uridine triphosphate]
b = Nc1ncnc2c1ncn2[C@@H]1O[C@H](COP(=O)(O)OP(=O)(O)OP(=O)(O)O)[C@@H](O)[C@H]1O [ATP, adenosine triphosphate]
input: Given a and given b , which shows the smaller recorded isotherm data point (enthalpy change per injection)? API: response body contains the label of the selected item.
output: b

----------
- system.name: UCP1 (Homo sapiens)
- Construct: His8 (N, cleaved yes); Factor Xa protease cleavage site (N, cleaved yes); made in house; host or cells: Saccharomyces cerevisiae strain W303.1B
- test.summary: Isothermal titration calorimetry of nucleotide binding
- Design: unit not given here
- conditions.used: Molar ratio (Nucleotide/UCP) 1.76819; representative isotherm, pH 6.0, 20 °C
property.name: isotherm data point (enthalpy change per injection)

Field: example entries. Status: answers known.
Cc1cn([C@H]2C[C@H](O)[C@@H](COP(=O)(O)OP(=O)(O)OP(=O)(O)O)O2)c(=O)[nH]c1=O [dTTP, thymidine triphosphate]
-0.2521
Nc1ncnc2c1ncn2[C@@H]1O[C@H](COP(=O)(O)OP(=O)(O)OP(=O)(O)O)[C@@H](O)[C@H]1O [ATP, adenosine triphosphate]
0.1511
Nc1ccn(C2OC(COP(=O)(O)OP(=O)(O)OP(=O)(O)O)C(O)C2O)c(=O)n1 (centres unmarked)
-0.3877

I = Nc1nc2c(ncn2[C@@H]2O[C@H](COP(=O)(O)OP(=O)(O)OP(=O)(O)O)[C@@H](O)[C@H]2O)c(=O)[nH]1 [GTP, guanosine triphosphate]
II = O=c1ccn([C@@H]2O[C@H](CO[P@@](=O)(O)O[P@@](=O)(O)OP(=O)(O)O)[C@@H](O)[C@H]2O)c(=O)[nH]1 (stereo in doubt) [UTP, uridine triphosphate]
input: Smaller isotherm data point (enthalpy change per injection) value, I vs II ? Bench note: the answer is the label of the chosen record.
output: II

----------
- system.name: UCP1 (Homo sapiens)
- Construct: His8 (N, cleaved yes); Factor Xa protease cleavage site (N, cleaved yes); made in house; host or cells: Saccharomyces cerevisiae strain W303.1B
- test.summary: Isothermal titration calorimetry of nucleotide binding
- Parameters: unit not given here
- conditions.used: Molar ratio (Nucleotide/UCP) 1.21096; representative isotherm, pH 6.0, 20 °C
property.name: isotherm data point (enthalpy change per injection)

Known isotherm data point (enthalpy change per injection) results, listed for orientation:
O=c1ccn([C@@H]2O[C@H](CO[P@@](=O)(O)O[P@@](=O)(O)OP(=O)(O)O)[C@@H](O)[C@H]2O)c(=O)[nH]1 (stereo in doubt) [UTP, uridine triphosphate]
-3.295
Nc1ccn(C2OC(COP(=O)(O)OP(=O)(O)OP(=O)(O)O)C(O)C2O)c(=O)n1 (centres unmarked) [CTP]
-4.446
Cc1cn([C@H]2C[C@H](O)[C@@H](COP(=O)(O)OP(=O)(O)OP(=O)(O)O)O2)c(=O)[nH]c1=O [dTTP, thymidine triphosphate]
-2.755

a = Nc1nc2c(ncn2[C@@H]2O[C@H](COP(=O)(O)OP(=O)(O)OP(=O)(O)O)[C@@H](O)[C@H]2O)c(=O)[nH]1 [GTP, guanosine triphosphate]
b = Nc1ncnc2c1ncn2[C@@H]1O[C@H](COP(=O)(O)OP(=O)(O)OP(=O)(O)O)[C@@H](O)[C@H]1O [ATP, adenosine triphosphate]
input: Could you point out whether the larger isotherm data point (enthalpy change per injection) belongs to a or to b ? Your answer should be the label attached to the chosen record.
output: b

----------
- system.name: UCP1 (Homo sapiens, UniProt P25874)
- Construct: His8 (N, cleaved yes); Factor Xa protease cleavage site (N, cleaved yes); made in house; host or cells: Saccharomyces cerevisiae strain W303.1B
- test.summary: Isothermal titration calorimetry of nucleotide binding
- Parameters: unit not given here
- conditions.used: Molar ratio (Nucleotide/UCP) 1.62611; representative isotherm, pH 6.0, 20 °C
property.name: isotherm data point (enthalpy change per injection)

Nc1nc2c(ncn2[C@@H]2O[C@H](COP(=O)(O)OP(=O)(O)OP(=O)(O)O)[C@@H](O)[C@H]2O)c(=O)[nH]1 [GTP, guanosine triphosphate]
-0.9907

I = O=c1ccn([C@@H]2O[C@H](CO[P@@](=O)(O)O[P@@](=O)(O)OP(=O)(O)O)[C@@H](O)[C@H]2O)c(=O)[nH]1 (stereo in doubt) [UTP, uridine triphosphate]
II = Nc1ccn(C2OC(COP(=O)(O)OP(=O)(O)OP(=O)(O)O)C(O)C2O)c(=O)n1 (stereo not shown) [CTP]
input: Which shows the larger isotherm data point (enthalpy change per injection) value: I or II ? Lab log: write the label of the selected item as the result.
output: I

----------
- system.name: UCP1 (Homo sapiens)
- Construct: His8 (N, cleaved yes); Factor Xa protease cleavage site (N, cleaved yes); made in house; host or cells: Saccharomyces cerevisiae strain W303.1B
- test.summary: Isothermal titration calorimetry of nucleotide binding;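 note: purified human UCP1 in cacodylate buffer with lauryl maltose neopentyl glycol and cardiolipin, titrated with nucleotides, isotherms fitted by one-site model yielding ΔH, Kd and stoichiometry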
- Parameters: unit not given here
- conditions.used: Molar ratio (Nucleotide/UCP) 0.554656; representative isotherm, pH 6.0, 20 °C
property.name: isotherm data point (enthalpy change per injection)

The following molecules have reported results that may help.
Nc1ccn(C2OC(COP(=O)(O)OP(=O)(O)OP(=O)(O)O)C(O)C2O)c(=O)n1 (centres unmarked)
-16.5202
O=c1ccn([C@@H]2O[C@H](CO[P@@](=O)(O)O[P@@](=O)(O)OP(=O)(O)O)[C@@H](O)[C@H]2O)c(=O)[nH]1 (stereo in doubt) [UTP, uridine triphosphate]
-18.3443
Cc1cn([C@H]2C[C@H](O)[C@@H](COP(=O)(O)OP(=O)(O)OP(=O)(O)O)O2)c(=O)[nH]c1=O [dTTP, thymidine triphosphate]
-20.6625

P = Nc1nc2c(ncn2[C@@H]2O[C@H](COP(=O)(O)OP(=O)(O)OP(=O)(O)O)[C@@H](O)[C@H]2O)c(=O)[nH]1 [GTP, guanosine triphosphate]
Q = Nc1ncnc2c1ncn2[C@@H]1O[C@H](COP(=O)(O)OP(=O)(O)OP(=O)(O)O)[C@@H](O)[C@H]1O [ATP, adenosine triphosphate]
input: Identify the item whose isotherm data point (enthalpy change per injection) is the smaller number: P or Q # answer = label of selected item
output: Q
(Q: -34.076, P: -17.0687)
